- System: morningglory
- test-protocol: Test C pre-/postemergence herbicide test
- Format: in vivo, Ipomoea coccinea
- test-parameters: Preemergence, 31 g ai/ha; scale 0 to 100, 0 is no effect and 100 is complete control
property: Morningglory plant response rating
Respond with the number and no other words.

The cases that follow already have their Morningglory plant response rating on record.
CN1CC(c2cccc(C(F)(F)F)c2)C(C(=O)Nc2ccccc2F)C1=O (stereo not drawn) [Compound 277]
0
O=C(Nc1ccccc1F)C1C(=S)NCC1c1cccc(C(F)(F)F)c1 (stereo not drawn) [Compound 274]
0

API: the following record is the query input.
Exercise: // Morningglory plant response rating lookup, key: O=C1NCC(c2ccc(C(F)(F)F)nc2)C1C(=O)Nc1ccccc1F (racemic) [Compound 262]
Solution: 0

The origin of these recorded values is patent US10294202B2.
